The reported measurements were obtained from ChEMBL document CHEMBL3988442.

Give Percent Effect for every item shown.
biological target: Proteasome subunit beta (Trypanosoma cruzi) (UniProt O96673); assay: Trypanosoma cruzi proteasome chymotrypsin-like activity (TcProtChymo) assay.; format: functional; set-up: scale not given: in the data most compounds retested in dose-response had high values; details: 9.37 µM
Sequence (O96673 as listed by the source): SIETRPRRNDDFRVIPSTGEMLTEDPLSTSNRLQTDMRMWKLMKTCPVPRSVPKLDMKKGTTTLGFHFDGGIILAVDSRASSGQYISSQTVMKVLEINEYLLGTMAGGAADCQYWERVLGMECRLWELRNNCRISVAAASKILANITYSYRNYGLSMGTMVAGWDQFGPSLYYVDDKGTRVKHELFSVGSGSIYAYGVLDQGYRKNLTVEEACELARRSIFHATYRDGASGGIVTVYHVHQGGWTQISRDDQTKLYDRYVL

stdin: # query: Percent Effect | item CCc1cc(O)nc(C2CCCN2C(=O)c2cc(C)no2)n1 (stereo unspecified) | system: Proteasome subunit beta (Trypanosoma cruzi) (UniProt O96673)
stdout: 11.3%

stdin: Next compound: `CCNC(=O)[C@@H]1C[C@@H](NC(=O)Cc2ccncc2)CN1Cc1ccsc1`
stdout: 11.6%

stdin: Next compound: O=C(NCc1cc(O)ncn1)C1COc2ccccc2C1 (stereo unspecified)
stdout: 13%

stdin: Next compound: O=C1CC(c2ccco2)c2sc(C(=O)O)c(-c3ccccc3)c2N1 (stereo unspecified)
stdout: 27.7%

stdin: Next compound: Cc1cnn(C2CCCN(C(=O)c3sccc3C#N)C2)c1 (stereo unspecified)
stdout: -3.33%

stdin: Next compound: c1ccc(-n2ccc(CN3CCCC3Cn3cccn3)n2)cc1 (stereo unspecified)
stdout: 8.25%

stdin: Next compound: CN1CC(c2ccccc2)CC12CCN(C(=O)c1cncc(Cl)c1)CC2 (stereo unspecified)
stdout: 12.3%

stdin: Next compound: `COc1ccc(C[C@H]2CN(C(=O)c3ccncc3)CC[C@@H]2OC)cc1`
stdout: 6.61%

stdin: Next compound: `Cn1ccc(C(=O)NCc2cccc(N3CCCCC3=O)c2)cc1=O`
stdout: 27.5%

stdin: Next compound: CC(NC(=O)CN(C)S(C)(=O)=O)c1nnc2n1CCCCC2 (stereo unspecified)
stdout: 17.2%

stdin: Next compound: `O=C(Cc1n[nH]c2ccccc12)N1CCC(Nc2cccnn2)CC1`
stdout: 13.2%

###

target: Ubiquitin-activating enzyme e1, putative (Leishmania donovani (strain BPK282A1)); test: Leishmania donovani Ubiquitin Activating Enzyme (LdE1); format: functional; design: scale not given: direction of the effect not stated beside the values; conditions: 30 µM
Results with a measured potency or affinity are listed apart.
// returns 0 unless Percent Effect is strictly below 20%, in which case 1

stdin: Is it true that Percent Effect reported for COc1cccc(-n2nnc(C(=O)N3CCN(C)CC3C)c2C)c1 (stereo not given) is less than 20%?
stdout: 0

stdin: Next compound: `Fc1ccc(CN2CCC(c3n[nH]c4ncccc34)CC2)cc1F`
stdout: 1

stdin: Next compound: `COCCN1C[C@@H]2CN(C(=O)[C@H]3CCCO3)C[C@@H]2C1=O`
stdout: 1

stdin: Next compound: `CN1CCN(CC2CC2)C(=O)c2cnc(N3CCCC3)nc21`
stdout: 1

stdin: Next compound: CCn1ccnc1CN1CCN(CC(O)c2ccccc2)CC1 (stereo not given)
stdout: 1

###

biological target: Chromo domain-containing protein 1 (Saccharomyces cerevisiae (strain ATCC 204508 / S288c) (Baker's yeast)); assay: ScCHD-1 Enzyme Inhibition Assay; format: functional; set-up: scale not given: in the data most compounds retested in dose-response had high values; conditions: 30 µM
OBSERVED_PROPERTY: Percent Effect (%)
Provide only the numeric value, understood in %.

stdin: What Percent Effect value was documented for this compound, CN(C(=O)CN1CCOC(Cn2cccn2)C1)c1nccs1 (stereo not drawn) ?
stdout: -15

stdin: Next compound: O=c1c2ccccc2nc2n1C(CSc1ccc(Cl)cc1Cl)CN2 (stereo not drawn)
stdout: -2.41

stdin: Next compound: `CCn1nc2c(cc1=O)CN(Cc1nc(-c3ccsc3)no1)CC2`
stdout: -6.49

stdin: Next compound: `Cc1ncc(-c2ccnc(N3CCCCC3)n2)c(=O)[nH]1`
stdout: -11.6

stdin: Next compound: `Cc1cc(C)cc(OCC(=O)NC2CCN(S(C)(=O)=O)CC2)c1`
stdout: -7.11

stdin: Next compound: `Cn1cc(NC(=O)N2CCC(CN3CCCC3)CC2)ccc1=O`
stdout: 0.924

stdin: Next compound: `O=C1COC2(CCN(C(=O)c3ccco3)CC2)CN1Cc1ccccn1`
stdout: -5.91

stdin: Next compound: `Cc1cc2c(=O)n3c(nc2s1)CCN(Cc1cnc(C(C)C)nc1)CC3`
stdout: -25.8

stdin: Next compound: `CCn1ccnc1CN1CCCN(C(=O)c2cc(Cl)c[nH]2)CC1`
stdout: -8.12

stdin: Next compound: `CCc1nc(CN2CCN(C(=O)C3CCCCC3)CC2)cs1`
stdout: -7.32

stdin: Next compound: `COc1ccc(-c2nc(CN3CCc4c(ncn4C)C3)cs2)cc1`
stdout: 4.88

stdin: Next compound: `Cc1nc(N2CCCC2)nc2c1CN(C(=O)N1CCOCC1)CC2`
stdout: -9.99

stdin: Next compound: Cc1nn(-c2ccccc2)c(C)c1CNC1CCc2ncnn2C1 (stereo not drawn)
stdout: -3.12

###

target: AMP-activated protein kinase, AMPK (Homo sapiens) (UniProt P54646+O43741+P54619+Q9UGJ0+Q9Y478+Q13131+Q9UGI9); test: AMP-dependent Kinase enzyme assay. An in vitro enzyme assay that detects ADP turnover that is directly proportional to AMPK activity. This uses naive AMPK that is activated during the assay with MK-8722; assay type: functional; parameters: scale not given: direction of the effect not stated beside the values; settings: 30 µM
Give Percent Effect for every item shown.
Provide only the numeric value, understood in %.

stdin: What Percent Effect value was documented for this compound, Cc1nc(N)c2ccc(C3CCCN3)nc2n1 (stereo not drawn) ?
stdout: 10.9

stdin: Next compound: `O=C(NCCS(=O)(=O)N1CCN(c2ncccn2)CC1)C1CCCC1`
stdout: -1.53

stdin: Next compound: `Cc1nc(O)cc(CN2C[C@H](NC(=O)C3CCCC3)[C@@H](C3CC3)C2)n1`
stdout: -1.66

###

Molecular target: Arginase-2, mitochondrial (Homo sapiens) (UniProt P78540)
Sequence (whole entry): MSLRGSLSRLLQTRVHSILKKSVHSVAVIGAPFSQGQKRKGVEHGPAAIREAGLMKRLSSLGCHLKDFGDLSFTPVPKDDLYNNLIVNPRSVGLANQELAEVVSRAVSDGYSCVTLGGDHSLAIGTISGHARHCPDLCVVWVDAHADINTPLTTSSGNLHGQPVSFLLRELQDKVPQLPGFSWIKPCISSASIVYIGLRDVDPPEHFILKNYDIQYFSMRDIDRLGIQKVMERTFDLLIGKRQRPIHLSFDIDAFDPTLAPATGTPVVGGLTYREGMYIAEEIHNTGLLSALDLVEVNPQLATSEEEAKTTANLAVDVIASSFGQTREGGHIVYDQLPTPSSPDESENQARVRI
Experiment: in vitro enzyme assay to detect the production of urea directly proportional to the activity of Arginase II; note: in the data most compounds retested in dose-response had high values
Type: functional
Set-up: scale not given: direction of the effect not stated beside the values
Conditions: 33.3 µM
Give Percent Effect for every item shown.
Provide only the numeric value, understood in %.

stdin: # query: Percent Effect | item O=C(NCC1CCOC1)Nc1ccc(OCC(F)(F)F)nc1 (stereo not drawn) | system: Arginase-2, mitochondrial (Homo sapiens) (UniProt P78540)
stdout: 8.2

stdin: Next compound: `COCCN1C[C@@H]2CN(C(=O)[C@H]3CCCO3)C[C@@H]2C1=O`
stdout: 3.65

stdin: Next compound: `CCc1nc(CN2CCN(C(=O)C3CCCCC3)CC2)cs1`
stdout: 1.64

###

molecular target: AMP-activated protein kinase, AMPK (Homo sapiens) (UniProt P54646+O43741+P54619+Q9UGJ0+Q9Y478+Q13131+Q9UGI9); assay: AMP-dependent Kinase enzyme assay. An in vitro enzyme assay that detects ADP turnover that is directly proportional to AMPK activity. This uses naive AMPK that is activated during the assay with MK-8722; format: functional; set-up: scale not given: direction of the effect not stated beside the values; conditions: 30 µM
OBSERVED_PROPERTY: Percent Effect (%)
Provide only the numeric value, understood in %.

stdin: What Percent Effect value was documented for this compound, O=C(O)CC(CC(=O)N(Cc1ccsc1)C1CC1)c1cccs1 (stereo unspecified) ?
stdout: -2.55

stdin: Next compound: CCNC(=O)c1ccc(NC2CCOC3(CCCCC3)C2)nn1 (stereo unspecified)
stdout: 3.88

stdin: Next compound: `CN(CC1(CO)CCC1)c1nc2c(c(=O)[nH]1)Cc1ccccc1OC2`
stdout: 1.42

stdin: Next compound: CC(NCc1ccnc(OC2CCC2)c1)c1cnn(C)c1 (stereo unspecified)
stdout: 6.18

stdin: Next compound: `COc1cc(C(=O)O)ccc1OCC(=O)NCCc1ccccc1`
stdout: 2.55

stdin: Next compound: `CN(CCOc1ccccc1)C(=O)Nc1cccn(C)c1=O`
stdout: -59.2

stdin: Next compound: `CN(Cc1ccoc1)C(=O)C1CCN(C(=O)C2CCCC2)CC1`
stdout: -3.16

stdin: Next compound: `Cc1cc(=O)n2nc(Oc3cccc(I)c3)sc2n1`
stdout: -1.18

stdin: Next compound: `Cc1cc(C)c2[nH]c(C(=O)NCCN3CCNC3=O)c(C)c2c1`
stdout: 11.1

stdin: Next compound: O=C(C1CC1)N1CCCCCC1C1CCN(c2ncccn2)CC1 (stereo unspecified)
stdout: -6.9

stdin: Next compound: `CCc1nc(CN(C)C(=O)CSC)no1`
stdout: 1.82

stdin: Next compound: `COCCN(Cc1cnn(C)c1)c1nc2c(s1)c(C)nn2C`
stdout: -0.701

stdin: Next compound: `Cc1noc(C)c1CCCNC(=O)Nc1ccc2c(c1)COC2`
stdout: 16.7

stdin: Next compound: `O=C(CN1CCC(c2nnc(C(F)(F)F)o2)CC1)Nc1cccc(Cl)c1`
stdout: -5.71

stdin: Next compound: Cc1cc(C)nc(N2CCCC(C)(c3[nH]ncc3C(=O)N(C)C)C2)n1 (stereo unspecified)
stdout: 4.6

stdin: Next compound: `O=C(c1nnn(-c2ccccc2)n1)N(CCO)CCO`
stdout: 0.534

stdin: Next compound: CN(CCCO)Cc1cc(Cl)ccc1OCC(O)CN1CCCCCC1 (stereo unspecified)
stdout: -10.6

stdin: Next compound: `CC(C)OCCN1CCC(Nc2ncccn2)CC1`
stdout: -1.19

stdin: Next compound: COc1ccc(NC(=O)c2cnc(C3CCN(C(C)=O)C3)nc2C)cc1 (stereo unspecified)
stdout: -1.66

stdin: Next compound: `CCCc1nnc(N2CCC(N3CCCCCC3)CC2)o1`
stdout: -2.81

stdin: Next compound: `O=C(NCc1ccccn1)c1cc2n(n1)CCNC2`
stdout: 11.8
